Target: Ghrelin/GHRP/GHS Receptor (Rattus norvegicus, UniProt O08725)
Sequence (O08725 whole entry): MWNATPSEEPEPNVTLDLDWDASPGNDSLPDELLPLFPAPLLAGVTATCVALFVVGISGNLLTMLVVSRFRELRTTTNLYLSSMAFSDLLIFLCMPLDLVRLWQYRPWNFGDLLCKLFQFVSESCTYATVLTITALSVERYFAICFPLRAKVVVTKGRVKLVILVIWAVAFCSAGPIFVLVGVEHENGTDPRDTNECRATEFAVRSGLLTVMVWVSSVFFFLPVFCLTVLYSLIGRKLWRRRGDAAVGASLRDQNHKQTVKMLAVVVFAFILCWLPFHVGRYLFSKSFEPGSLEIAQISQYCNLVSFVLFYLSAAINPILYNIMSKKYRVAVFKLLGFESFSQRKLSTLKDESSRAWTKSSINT
Assay: In vitro GH release from isolated pituitary glands, pituitary incubation method
Format: cell-based
Conditions: Table 1; peptide antagonist 30 μg/ml + stimulator His-DTrp-Ala-Trp-DPhe-Lys-NH2 10 ng/ml
[ ]: non-standard residue; d: D form. The star is where a group is joined. Desaminotyrosyl = O=C(CCc1ccc(O)cc1)*
Metric name: Change in stimulated GH release versus preincubation (delta) (ng/mL)
Numbers only, in ng/mL.

substance="DesaminoTyr-DTrp-Ser-Trp-DPhe-NH2 ([Desaminotyrosyl][dW]SW[dF]-NH2; SMILES NC(=O)[C@@H](Cc1ccccc1)NC(=O)[C@H](Cc1c[nH]c2ccccc12)NC(=O)[C@H](CO)NC(=O)[C@@H](Cc1c[nH]c2ccccc12)NC(=O)CCc1ccc(O)cc1)" value_reported=3258
substance="DesaminoTyr-DTrp-DLys-Trp-DPhe-NH2 ([Desaminotyrosyl][dW][dK]W[dF]-NH2; SMILES NCCCC[C@@H](NC(=O)[C@@H](Cc1c[nH]c2ccccc12)NC(=O)CCc1ccc(O)cc1)C(=O)N[C@@H](Cc1c[nH]c2ccccc12)C(=O)N[C@H](Cc1ccccc1)C(N)=O)" value_reported=-576

Lab note: next substance to report on.
Entry DesaminoTyr-DTrp-Ala-Trp-DPhe-NH2 ([Desaminotyrosyl][dW]AW[dF]-NH2; SMILES C[C@H](NC(=O)[C@@H](Cc1c[nH]c2ccccc12)NC(=O)CCc1ccc(O)cc1)C(=O)N[C@@H](Cc1c[nH]c2ccccc12)C(=O)N[C@H](Cc1ccccc1)C(N)=O) has what Change in stimulated GH release versus preincubation (delta)?
-959

====

Target: Ghrelin/GHRP/GHS Receptor (Rattus norvegicus)
Experiment: In vivo GH release in rat (serum GH by RIA after i.v. peptide)
Settings: Table 3; peptide alone 3 μg i.v.
Where no end group is shown, it is not given here. [ ]: non-standard residue; d: D form. dCha = N[C@H](CC1CCCCC1)C(=O)O; Nle = CCCC[C@H](N)C(=O)O
Hi there, I'd appreciate the recorded Unstimulated Basal GH Release from rat for every entry that follows.
Answer as a quantity: numeral, then unit.

Hi, could you look up Unstimulated Basal GH Release from rat for each item in my list?
1. DAla-DcyclohexylAla-Ala-Phe-DPhe-Nle-NH2 ([dA][dCha]AF[dF][Nle]-NH2; N-terminus assumed; SMILES CCCC[C@H](NC(=O)[C@@H](Cc1ccccc1)NC(=O)[C@H](Cc1ccccc1)NC(=O)[C@H](C)NC(=O)[C@@H](CC1CCCCC1)NC(=O)[C@@H](C)N)C(N)=O)
2. DcyclohexylAla-Ala-Trp-DPhe-NH2 ([dCha]AW[dF]-NH2; N-terminus assumed; SMILES C[C@H](NC(=O)[C@H](N)CC1CCCCC1)C(=O)N[C@@H](Cc1c[nH]c2ccccc12)C(=O)N[C@H](Cc1ccccc1)C(N)=O)

["195 ± 34 ng/mL", "181 ± 28 ng/mL"]

====

Biological target: Ghrelin/GHRP/GHS Receptor (Rattus norvegicus, UniProt O08725)
Assay: In vitro GH release from isolated pituitary glands, pituitary incubation method
Type: cell-based
Conditions: Table 1; peptide antagonist 0.3 μg/ml + stimulator His-DTrp-Ala-Trp-DPhe-Lys-NH2 10 ng/ml
Method: Hormonal activities were obtained from in vitro studies using pituitaries of 20 day old CD-1 strain Sprague Dawley female rats. Two pituitaries were incubated for a total of 4-6 hours. Medium was removed each hour for RIA of GH level and fresh medium was added again. […] Peptide activity was calculated as the change in the hormonal level (delta) between I3+I4 and P2. […] Each value recorded represents the mean of 6. […]
Where no end group is shown, it is not given here. [ ]: non-standard residue; d: D form. The star is where a group is joined. Desaminotyrosyl = O=C(CCc1ccc(O)cc1)*
Hi there, I'd appreciate the recorded Change in stimulated GH release versus preincubation (delta) for every entry that follows.
One number for each entry, in ng/mL.

Guide cases for Change in stimulated GH release versus preincubation (delta), answers given:
substance="His-DTrp-DLys-Trp-DPhe-Lys-NH2 (H[dW][dK]W[dF]K-NH2; N-terminus assumed; SMILES NCCCC[C@H](NC(=O)[C@@H](Cc1ccccc1)NC(=O)[C@H](Cc1c[nH]c2ccccc12)NC(=O)[C@@H](CCCCN)NC(=O)[C@@H](Cc1c[nH]c2ccccc12)NC(=O)[C@@H](N)Cc1c[nH]cn1)C(N)=O)" value_reported=952
substance="DesaminoTyr-DTrp-DLys-Trp-DPhe-NH2 ([Desaminotyrosyl][dW][dK]W[dF]-NH2; SMILES NCCCC[C@@H](NC(=O)[C@@H](Cc1c[nH]c2ccccc12)NC(=O)CCc1ccc(O)cc1)C(=O)N[C@@H](Cc1c[nH]c2ccccc12)C(=O)N[C@H](Cc1ccccc1)C(N)=O)" value_reported=2404
substance="Tyr-DTrp-DTrp-Phe-Phe-NH2 (Y[dW][dW]FF-NH2; N-terminus assumed; SMILES NC(=O)[C@H](Cc1ccccc1)NC(=O)[C@H](Cc1ccccc1)NC(=O)[C@@H](Cc1c[nH]c2ccccc12)NC(=O)[C@@H](Cc1c[nH]c2ccccc12)NC(=O)[C@@H](N)Cc1ccc(O)cc1)" value_reported=1274

Hi, could you look up Change in stimulated GH release versus preincubation (delta) for each item in my list?
1. His-DTrp-DLys-Trp-DPhe-NH2 (H[dW][dK]W[dF]-NH2; N-terminus assumed; SMILES NCCCC[C@@H](NC(=O)[C@@H](Cc1c[nH]c2ccccc12)NC(=O)[C@@H](N)Cc1c[nH]cn1)C(=O)N[C@@H](Cc1c[nH]c2ccccc12)C(=O)N[C@H](Cc1ccccc1)C(N)=O)
2. His-DTrp-DTrp-Phe-Met-NH2 (H[dW][dW]FM-NH2; N-terminus assumed; SMILES CSCC[C@H](NC(=O)[C@H](Cc1ccccc1)NC(=O)[C@@H](Cc1c[nH]c2ccccc12)NC(=O)[C@@H](Cc1c[nH]c2ccccc12)NC(=O)[C@@H](N)Cc1c[nH]cn1)C(N)=O)

1: 1765; 2: 1542
